B1: POU domain, class 3, transcription factor 3, residues 320 to 388; numbered along this chain, P20264 (parent)
chain: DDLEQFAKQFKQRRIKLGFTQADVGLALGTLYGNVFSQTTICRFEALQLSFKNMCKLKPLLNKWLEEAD

Variants of: B1
Test: abundance fitness (aPCA) (normalised: wild type 0, dead -1); higher = more abundant; growth selection in yeast, the domain comes from the species named
Conditions: Homo sapiens
Note to self: values exactly at -0.3 are 1. So abundance fitness at or above -0.3 is 1, below is 0.

**Query** Is reported abundance fitness greater than or equal to -0.3 here: "S37L"
**Result** 0

**Query** Could you verify whether the entry "L28Q" shows abundance fitness of no less than -0.3?
**Result** 0

Source: the Human Domainome abundance scans (Beltran et al. 2025)
